Assay: in vitro
Conditions: human, hela cells, % viability
Measured viability at 28.5 h, 10 µM values are reported for all entries that follow.
Numeric answer only, unit % assumed.

Record excerpt, results attached:
Compound: Cc1ccccc1-c1cncc(C2CCN(C(=O)Cc3c[nH]c4ccccc34)CC2)n1 [CBK286148]
Measured Result: 79.4
--
Compound: Cn1c(SCC(=O)c2ccc(Cl)cc2)nnc1-c1cnccc1C(F)(F)F [CBK067698]
Measured Result: 110
--
Compound: CN(C)CCNC(=O)c1ccc(-c2cnc3[nH]c(=O)n(C4CCCC4)c3n2)cc1 [CBK064957]
Measured Result: 110
--
Compound: COc1ccc(Nc2cn(C)nc2C(=O)O)cc1 [CBK269814]
Measured Result: 103
--
Compound: Cc1cn([C@H]2C[C@@H](O)[C@@H](CO)O2)c(=O)n(CCC#N)c1=O [CBK201322]
Measured Result: 98.4

Enquiry: Read the entry Cn1cccc1CNCCN1CCOCC1 [CBK278187C] and write its reported viability at 28.5 h, 10 µM.
Return: 89.2

Enquiry: Look up viability at 28.5 h, 10 µM of CCCc1cc(CNC(=O)c2cnn(-c3ccc(F)cc3)c2)on1 [CBK282463] and report it.
Return: 86.6

Enquiry: Let me know recorded viability at 28.5 h, 10 µM for CC(C)C(=O)Nc1nnc(-c2ccc(Cl)cc2)o1 [CBK287593] , thanks.
Return: 94

Enquiry: Identify measured viability at 28.5 h, 10 µM corresponding to CCc1cccc(C)c1NC(=O)CSc1nnc(-c2cccnc2)n1C [CBK267582]
Return: 88.4

Enquiry: Indicate the recorded viability at 28.5 h, 10 µM value for this compound: COCCc1nsc(N2CCC(N(C)c3cccnn3)CC2)n1 [CBK304701]
Return: 94.1

----------
Experiment: in vitro
Conditions: human, hela cells, % viability
Assay Readout: viability at 28.5 h, 10 µM (%)
I only need the number, in %, no unit after it.

Compound: Cc1occc1-c1nnc(SCC(=O)Nc2cccc3nsnc23)o1
viability at 28.5 h, 10 µM (%): 89.5

Compound: Cc1csc(NC(=O)C2CC(=O)N(C3CCCC3)C2)n1 (centres unmarked)
viability at 28.5 h, 10 µM (%): 107

Compound: CC(C)c1cc(C(C)C)c(S(=O)(=O)n2cnc3c2c(=O)[nH]c(=O)n3C)c(C(C)C)c1
viability at 28.5 h, 10 µM (%): 107

Enquiry: Give recorded viability at 28.5 h, 10 µM. c1ccc2c(c1)nc(-c1cscn1)n2CCCCc1nnn[nH]1
Return: 93.7

Enquiry: Supply measured viability at 28.5 h, 10 µM of OCC[C@H]1CN2CCCC2CN1Cc1cccc(Cl)c1Cl (some centres unmarked) in your reply.
Return: 86.6

----------
Parameter viability at 28.5 h, 10 µM: see the listing below.
Test: in vitro
Settings: human, hela cells, % viability
Write the number in % without appending the unit.

Solved cases below.
Molecule: CC1CCCCN1CCCNc1cc(NS(=O)(=O)c2cn(C)cn2)cc2ccoc12 (centres unmarked) [CBK067940C]
Assay Readout: viability at 28.5 h, 10 µM
Measured Result: 94.5

Molecule: COc1cccc2ncn(C(C)c3nc(C)sc3C)c(=O)c12 (centres unmarked)
Assay Readout: viability at 28.5 h, 10 µM
Measured Result: 109

Molecule: CCC(=O)N1CCCc2cc(C(O)CN3CCN(c4ccc(F)cc4)CC3)ccc21 (centres unmarked)
Assay Readout: viability at 28.5 h, 10 µM
Measured Result: 95.3

Enquiry: Give a short answer stating reported viability at 28.5 h, 10 µM for Cc1ccc(S(=O)(=O)NCc2ccccc2)c(C)c1NS(C)(=O)=O .
Return: 90.2

Enquiry: Query viability at 28.5 h, 10 µM for O=C(NC1CC1)[C@H]1CN2CCC1C[C@@H]2Cn1cc(CC2CCCCC2)nn1 (some centres unmarked)
Return: 103

Enquiry: Specify viability at 28.5 h, 10 µM for COc1ccc(-c2cn(-c3ccc4c(c3)CCO4)nn2)cc1 and stop.
Return: 88.5

Enquiry: Read the entry Cc1cccn2cc(CCNC(=O)CN(C)C3CCSC3)nc12 (centres unmarked) and write its reported viability at 28.5 h, 10 µM.
Return: 84.6

Enquiry: Identify measured viability at 28.5 h, 10 µM corresponding to COc1ccc(C2NC(C(=O)O)C3C(=O)N(c4ccc(C)cc4)C(=O)C23)c(OC)c1 (centres unmarked)
Return: 90.2

Enquiry: Give the reported viability at 28.5 h, 10 µM for this molecule. COc1cc(-c2nc(S(=O)(=O)c3ccccc3)c(N3CCOCC3)o2)cc(OC)c1OC
Return: 90.1

----------
Assay: in vitro
Conditions: human, hela cells, % viability
Assay Readout: viability at 28.5 h, 10 µM (%)
Supply the numeric figure in %, leaving out any unit text.

Some compounds with known viability at 28.5 h, 10 µM results, for comparison:
Compound: O=C(c1ccc(Oc2ccccc2)cc1)N1CCC2(CCN(Cc3ccccc3)C2)C1 (stereo not shown)
Unit Annotation: %
viability at 28.5 h, 10 µM: 99.3
//
Compound: CCC1CCc2c(sc(NC(=O)c3cc(-c4ccc(C)cc4C)nc4ccccc34)c2C(=O)OC)C1 (stereo not shown)
Unit Annotation: %
viability at 28.5 h, 10 µM: 89.2
//
Compound: O=C(C1C2CCCCC21)N1CCC(Oc2ccc(F)cc2)CC1 (stereo not shown)
Unit Annotation: %
viability at 28.5 h, 10 µM: 92.1
//
Compound: O=C(CN1CCC(c2ccncc2)CC1)N1CCCCC1
Unit Annotation: %
viability at 28.5 h, 10 µM: 102
//
Compound: Cc1nc(CN2CCC3(CC2)CN(C(=O)CO)c2ccccc23)cs1
Unit Annotation: %
viability at 28.5 h, 10 µM: 93.5

Enquiry: Using the record for CCCc1[nH]nc(O)c1-c1cccc2ccccc12 , state its measured viability at 28.5 h, 10 µM.
Return: 94

Enquiry: Item c1ccc(CNc2nc(-c3ccncc3)cs2)cc1 : provide viability at 28.5 h, 10 µM
Return: 91

----------
Assay: in vitro
Details: human, hela cells, % viability
# maps each entry to its viability at 28.5 h, 10 µM
Express your answer in %, writing the number without its unit.

Examples from the recorded data:
Compound: Cc1cc(C)c(C)c(CSCc2nc3ccccc3[nH]2)c1C
viability at 28.5 h, 10 µM, %: 98.8
--
Compound: O=C(Cn1cc(C(=O)Nc2ccc(F)cc2)ccc1=O)Nc1nc2c(s1)CCCCC2
viability at 28.5 h, 10 µM, %: 99.3
--
Compound: O=C(COc1ccc2oc3c(c2c1)CCCC3)Nc1cccc2cccnc12
viability at 28.5 h, 10 µM, %: 101
--
Compound: CC[C@H]1CCCCN1C(=O)c1sc2nc(C(C)=O)ccc2c1Cl
viability at 28.5 h, 10 µM, %: 101
--
Compound: CC(=O)c1ccc(NS(=O)(=O)c2cc(C(=O)Nc3ccccc3C(=O)O)ccc2Br)cc1
viability at 28.5 h, 10 µM, %: 97.2

Enquiry: Supply reported viability at 28.5 h, 10 µM belonging to this compound: O=C(CCc1ccncc1)N1CCCCC1CN1CCCCCC1 (stereo not drawn)
Return: 99.6

Enquiry: Kindly indicate its recorded viability at 28.5 h, 10 µM. Item: COc1ccc(NC(=O)CSc2nc(N)n[nH]2)cc1Cl
Return: 108

Enquiry: Supply reported viability at 28.5 h, 10 µM belonging to this compound: COC(=O)[C@@H](C)NC(=O)[C@@H]1CN(C(=O)NC(C)C)CCN1C(=O)C1CCCCC1
Return: 90.7

Enquiry: Check the records and state viability at 28.5 h, 10 µM for COc1cccc2sc(NC(=O)c3ccc4ncsc4c3)nc12
Return: 98.5

----------
Listed molecules paired with reported viability at 28.5 h, 10 µM
Assay: in vitro
Conditions: human, hela cells, % viability
Value expressed in %; do not type the unit.

Use these answered entries as a reference point.
Molecule: O=C1NC(=O)C(c2ccccc2)(c2ccccc2)N1
Unit Annotation: %
viability at 28.5 h, 10 µM: 108
//
Molecule: CC(c1ccccc1)n1c(S)nnc1-c1cc(C(C)(C)C)n[nH]1 (stereo not shown)
Unit Annotation: %
viability at 28.5 h, 10 µM: 92.2
//
Molecule: COc1ccc(F)cc1S(=O)(=O)Nc1cccc(C)n1
Unit Annotation: %
viability at 28.5 h, 10 µM: 84.9
//
Molecule: CCC(CC)C(=O)N(C)c1c(C)nc2ccc(C(=O)N(C)CCN(C)C)cn12
Unit Annotation: %
viability at 28.5 h, 10 µM: 94.8

Enquiry: Tell us which viability at 28.5 h, 10 µM value is on record for CCCCNC(=O)c1ccc2c(c1)NC(=O)C(N1CCCC1)S2 (stereo not shown)
Return: 98.4

Enquiry: Supply reported viability at 28.5 h, 10 µM belonging to this molecule: Cc1c(Nc2nc3nonc3nc2Nc2cccc(Cl)c2)c(=O)n(-c2ccccc2)n1C
Return: 103

Enquiry: Answer with the recorded viability at 28.5 h, 10 µM of CSCCCNC(=O)c1cncc(-c2ccc(C(=O)N3CCOCC3)cc2)c1 only.
Return: 92.7

Enquiry: Query viability at 28.5 h, 10 µM for CN(C)C(=O)C(C)(C)Oc1cc(C(F)(F)F)n(C)n1
Return: 94.2

Enquiry: Identify viability at 28.5 h, 10 µM associated with the molecule Nc1ncnc2sc3c(c12)CCN(C(=O)c1ccc2nccnc2c1)C3
Return: 102
